Where do the numbers come from? From patent US11136317B2.

target entity: human NOX4 (Homo sapiens)
Construct: The full-length human NOX4 (NM_016931.3) transcript was cloned
Sequence (Q9NPH5 whole entry): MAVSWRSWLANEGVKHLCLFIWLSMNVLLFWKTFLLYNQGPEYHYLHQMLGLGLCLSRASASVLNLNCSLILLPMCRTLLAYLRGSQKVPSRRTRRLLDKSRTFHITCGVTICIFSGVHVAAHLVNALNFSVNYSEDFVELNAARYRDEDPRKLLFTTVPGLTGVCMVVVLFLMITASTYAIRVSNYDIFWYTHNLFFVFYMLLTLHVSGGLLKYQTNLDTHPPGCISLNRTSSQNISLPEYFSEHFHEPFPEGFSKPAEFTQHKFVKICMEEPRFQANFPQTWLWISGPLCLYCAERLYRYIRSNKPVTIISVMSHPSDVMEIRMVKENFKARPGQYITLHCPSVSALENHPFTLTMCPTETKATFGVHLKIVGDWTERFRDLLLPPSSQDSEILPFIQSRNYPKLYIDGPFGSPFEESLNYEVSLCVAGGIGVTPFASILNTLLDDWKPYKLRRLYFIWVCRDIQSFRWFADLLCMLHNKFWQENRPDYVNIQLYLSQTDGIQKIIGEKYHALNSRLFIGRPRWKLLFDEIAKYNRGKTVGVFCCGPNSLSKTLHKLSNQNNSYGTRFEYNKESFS
Sequence (P13498 whole entry partner): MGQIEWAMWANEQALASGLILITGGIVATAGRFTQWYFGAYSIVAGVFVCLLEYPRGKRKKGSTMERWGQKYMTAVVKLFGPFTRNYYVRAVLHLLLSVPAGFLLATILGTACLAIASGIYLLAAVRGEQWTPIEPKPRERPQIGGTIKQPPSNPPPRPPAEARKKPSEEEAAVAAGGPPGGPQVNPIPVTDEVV
procedure details: Amplex Red activity assay (cellular H2O2 formation in hNOX4 T-REx-293 cells)
particulars: tet-induced 24 h, extracellular H2O2 by Amplex Red, 60 min 25° C., geometric mean if determined several times
This listing pairs compounds with measured IC50.
property measured: IC50

>>> obs_value("CN1CCOc2ccc(C(=O)Nc3ccc4oc(N5CCCC(F)(F)C5)nc4c3)cc21 [Example 188]")
"3640 nM"
>>> obs_value("O=C(Nc1ccc2c(c1)OCO2)c1ccc2sc(N3CCC34COC4)nc2c1 [Example 209]")
"1500 nM"
>>> obs_value("O=C(Nc1ccc2oc(N3CCC4(CC3)COC4)nc2c1)c1ccc2c(c1)OCO2 [Example 132]")
"1080 nM"
>>> obs_value("CN1CCOc2ccc(C(=O)Nc3ccc4oc(N5CCCC5)nc4c3)cc21 [Example 183]")
"8700 nM"
>>> obs_value("CN1CCN(c2nc3cc(NC(=O)c4ccc5c(c4)CCO5)ccc3s2)CC1 [Example 83]")
"3540 nM"
>>> obs_value("CN1CCOc2ccc(C(=O)Nc3ccc4oc(N5CCOCC5)nc4c3)cc21 [Example 192]")
"4320 nM"
>>> obs_value("O=C(Nc1ccc2oc(N3CC4(CCCCO4)C3)nc2c1)c1ccc2c(c1)CCO2 [Example 34]")
"1220 nM"
>>> obs_value("O=C(Nc1ccc2c(c1)CCO2)c1ccc2oc(N3CCCCC3)nc2c1 [Example 76]")
"414 nM"
>>> obs_value("CN1CCN(c2nc3cc(NC(=O)c4ccc5c(c4)OCO5)ccc3o2)CC1 [Example 137]")
"1640 nM"
>>> obs_value("O=C(Nc1ccc2sc(N3CCC4(COC4)C3)nc2c1)c1ccc2c(c1)CCO2 [Example 115]")
"3410 nM"
>>> obs_value("CN(CC1COC1)c1nc2cc(NC(=O)c3ccc4c(c3)CCO4)ccc2o1 [Example 56]")
"906 nM"
>>> obs_value("CN(CC1(F)COC1)c1nc2cc(NC(=O)c3ccc4c(c3)CCO4)ccc2o1 [Example 52]")
"899 nM"
>>> obs_value("O=C(Nc1ccc2oc(N3CC(c4ccccn4)C3)nc2c1)c1ccc2c(c1)CCO2 [Example 120]")
"2340 nM"
>>> obs_value("CN1CCN(c2nc3cc(C(=O)Nc4ccc5c(c4)CCO5)ccc3o2)CC1 [Example 75]")
"421 nM"
>>> obs_value("O=C(Nc1ccc2oc(N3CCC34COC4)nc2c1)c1ccc2c(c1)CCCO2 [Example 143]")
"681 nM"
>>> obs_value("CN1CCCC2(C1)CN(c1nc3cc(NC(=O)c4ccc5c(c4)CCO5)ccc3o1)C2 [Example 33]")
"2140 nM"
>>> obs_value("CN(c1nc2cc(NC(=O)c3ccc4c(c3)CCO4)ccc2o1)C1CCN(C2COC2)CC1 [Example 54]")
"2910 nM"
>>> obs_value("O=C(Nc1ccc2oc(N3CC(F)(F)C3)nc2c1)c1ccc2c(c1)CCCO2 [Example 141]")
"10600 nM"
>>> obs_value("O=C(Nc1ccc2c(c1)OCCO2)c1ccc2sc(N3CCC(F)(F)CC3)nc2c1 [Example 204]")
"25500 nM"
>>> obs_value("O=C(Nc1ccc2oc(N3CCC34CCOCC4)nc2c1)c1ccc2c(c1)OCO2 [Example 126]")
"757 nM"
>>> obs_value("O=C(Nc1ccc2oc(N3CCC4(CC3)COC4)nc2c1)c1ccc2c(c1)CCO2 [Example 50]")
"451 nM"
>>> obs_value("O=C(Nc1ccc2sc(N3CC[C@@H](O)C3)nc2c1)c1ccc2c(c1)CCO2 [Example 112]")
"2270 nM"
>>> obs_value("O=C(Nc1ccc2oc(N3CC4(CCOC4)C3)nc2c1)c1ccc2c(c1)CCO2 [Example 74]")
"1080 nM"
>>> obs_value("O=C(Nc1ccc2oc(N3CCC34CCOCC4)nc2c1)c1ccc2c(c1)CCCO2 [Example 145]")
"1400 nM"
>>> obs_value("O=C(Nc1ccc2oc(N3CCCCC3)nc2c1)c1ccc2c(c1)CCO2 [Example 2]")
"639 nM"
>>> obs_value("O=C(Nc1ccc2oc(N(C3CC3)C3COC3)nc2c1)c1ccc2c(c1)CCO2 [Example 63]")
"359 nM"
>>> obs_value("CCOCC1CCCN1c1nc2cc(NC(=O)c3ccc4c(c3)CCO4)ccc2o1 (centres unmarked) [Example 51]")
"4570 nM"
>>> obs_value("CN(C)C1(C)CN(c2nc3cc(NC(=O)c4ccc5c(c4)CCO5)ccc3o2)C1 [Example 73]")
"4100 nM"
>>> obs_value("O=C(Nc1ccc2oc(N3CCC(F)(F)C3)nc2c1)c1ccc2c(c1)CCO2 [Example 9]")
"573 nM"
>>> obs_value("O=C(Nc1ccc2oc(N3CCCC34COC4)nc2c1)c1ccc2c(c1)OCCO2 [Example 165]")
"764 nM"
>>> obs_value("O=C(Nc1ccc2sc(N3CC(O)C3)nc2c1)c1ccc2c(c1)CCO2 [Example 109]")
"1780 nM"
>>> obs_value("CN1CCC2(CC1)CN(c1nc3cc(NC(=O)c4ccc5c(c4)CCO5)ccc3o1)C2 [Example 68]")
"1790 nM"
>>> obs_value("O=C(Nc1ccc2sc(N3CC[C@H](O)C3)nc2c1)c1ccc2c(c1)CCO2 [Example 98]")
"2530 nM"
>>> obs_value("O=C(Nc1ccc2sc(N3CC(F)(F)C3)nc2c1)c1ccc2c(c1)CCO2 [Example 87]")
"4100 nM"
>>> obs_value("O=C(Nc1ccc2oc(N3CC(O)C3)nc2c1)c1ccc2c(c1)CCCO2 [Example 140]")
"2520 nM"
